Origin of values: ChEMBL document CHEMBL3272173

# reported ED50; entries follow
Target: Gonadotropin-releasing hormone receptor (Rattus norvegicus) (UniProt P30969)
Sequence (whole entry): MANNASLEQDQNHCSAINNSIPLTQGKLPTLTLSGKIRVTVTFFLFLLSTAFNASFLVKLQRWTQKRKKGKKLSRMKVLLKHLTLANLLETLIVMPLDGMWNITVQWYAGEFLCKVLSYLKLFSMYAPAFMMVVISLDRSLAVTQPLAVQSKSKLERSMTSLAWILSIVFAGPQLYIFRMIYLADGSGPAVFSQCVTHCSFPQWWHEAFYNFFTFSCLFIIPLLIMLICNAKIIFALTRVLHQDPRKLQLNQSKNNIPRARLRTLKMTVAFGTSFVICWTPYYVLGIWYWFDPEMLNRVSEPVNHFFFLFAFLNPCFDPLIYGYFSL
Experiment: In vitro antagonist activity at GNRHR in CD rat anterior pituitary gland assessed as ratio of molar concentration of compound to LH-RH for inhibition of LH-RH-stimulated LH release after 4 hrs by radioimmunoassay
Peptide text beside a SMILES is read from it. * marks the point of attachment. Cbz = O=C(OCc1ccccc1)*; Bn = c1ccc(C*)cc1
Answer shape: numeric part, then the unit.

Example results:
Compound: CC(C)C[C@H](NC(=O)CNC(=O)[C@H](Cc1ccc(O)cc1)NC(=O)[C@H](CO)NC(=O)[C@H](Cc1c[nH]c2ccccc12)NC(=O)[C@H](COCc1ccccc1)NC(=O)OCc1ccccc1)C(=O)N[C@@H](CCCNC(=N)N)C(=O)N1CCC[C@H]1C(=O)NCC(N)=O.Cl (Cbz-S(Bn)WSYGLRPG-NH2)
ED50: 100 molar ratio

Compound: CC(C)C[C@H](NC(=O)CNC(=O)[C@H](Cc1ccc(O)cc1)NC(=O)[C@H](CO)NC(=O)[C@H](Cc1c[nH]c2ccccc12)NC(=O)[C@H](CC(C)C)NC(=O)OCc1ccccc1)C(=O)N[C@@H](CCCNC(=N)N)C(=O)N1CCC[C@H]1C(=O)NCC(N)=O.Cl (HELM PEPTIDE1{[O=C(OCc1ccccc1)[*:2]].L.W.S.Y.G.L.R.P.G.[am]}$$$$V2.0)
ED50: 750 molar ratio

Request: Give the measured ED50 of CCNC(=O)[C@@H]1CCCN1C(=O)[C@H](CCCNC(=N)N)NC(=O)[C@H](CC(C)C)NC(=O)[C@@H](Cc1c[nH]c2ccccc12)NC(=O)[C@H](Cc1ccc(O)cc1)NC(=O)[C@H](CO)NC(=O)[C@H](Cc1c[nH]c2ccccc12)NC(=O)[C@H](CCC(N)=O)NC(=O)OCc1ccccc1.Cl .
Result: 3.9 molar ratio

Request: Look up ED50: CCNC(=O)[C@@H]1CCCN1C(=O)[C@H](CCCNC(=N)N)NC(=O)[C@H](CC(C)C)NC(=O)[C@@H](Cc1ccccc1)NC(=O)[C@H](Cc1ccc(O)cc1)NC(=O)[C@H](CO)NC(=O)[C@H](Cc1c[nH]c2ccccc12)NC(=O)[C@H](COCc1ccccc1)NC(=O)OCc1ccccc1.Cl
Result: 1.3 molar ratio

---

inhibition by entry:
Molecular target: Gonadotropin-releasing hormone receptor (Rattus norvegicus) (UniProt P30969)
Assay: In vitro antagonist activity at GNRHR in CD rat anterior pituitary gland assessed as inhibition of LH-RH-stimulated LH release at compound to LH-RH molar ratio of 1000 after 4 hrs by radioimmunoassay
Details: concentration not given here
Peptide text beside a SMILES is read from it.
Please provide the amount together with its unit, number first.

Molecule: CC[C@H](C)[C@H](NC(=O)OCc1ccccc1)C(=O)N[C@@H](Cc1c[nH]c2ccccc12)C(=O)N[C@@H](CO)C(=O)N[C@@H](Cc1ccc(O)cc1)C(=O)NCC(=O)N[C@@H](CC(C)C)C(=O)N[C@@H](CCCNC(=N)N)C(=O)N1CCC[C@H]1C(=O)NCC(N)=O.Cl (HELM PEPTIDE1{[O=C(OCc1ccccc1)[*:2]].I.W.S.Y.G.L.R.P.G.[am]}$$$$V2.0)
Outcome Measure: inhibition
Assay Result: 70%

Request: Kindly state the measured inhibition obtained for CCNC(=O)[C@@H]1CCCN1C(=O)[C@H](CCCNC(=N)N)NC(=O)[C@H](CC(C)C)NC(=O)[C@@H](C)NC(=O)[C@H](Cc1ccc(O)cc1)NC(=O)[C@H](CO)NC(=O)[C@H](Cc1c[nH]c2ccccc12)NC(=O)[C@H](CCC(N)=O)NC(=O)OCc1ccccc1.Cl with Gonadotropin-releasing hormone receptor (Rattus norvegicus) (UniProt P30969).
Result: 100%

Request: Requested read-out inhibition, target or system Gonadotropin-releasing hormone receptor (Rattus norvegicus) (UniProt P30969), entry CC(C)C[C@H](NC(=O)CNC(=O)[C@H](Cc1ccc(O)cc1)NC(=O)[C@H](CO)NC(=O)[C@H](Cc1c[nH]c2ccccc12)NC(=O)[C@H](CCC(N)=O)NC(=O)OC(C)(C)C)C(=O)N[C@@H](CCCNC(=N)N)C(=O)N1CCC[C@H]1C(=O)NCC(N)=O (HELM PEPTIDE1{[CC(C)(C)OC(=O)[*:2]].Q.W.S.Y.G.L.R.P.G.[am]}$$$$V2.0)
Result: 15%

Request: // fetch Gonadotropin-releasing hormone receptor (Rattus norvegicus) (UniProt P30969) inhibition for CCNC(=O)[C@@H]1CCCN1C(=O)[C@H](CCCNC(=N)N)NC(=O)[C@H](CC(C)C)NC(=O)CNC(=O)[C@H](Cc1ccc(O)cc1)NC(=O)[C@H](CO)NC(=O)[C@H](Cc1c[nH]c2ccccc12)NC(=O)[C@H](CC(C)C)NC(=O)OCc1ccccc1.Cl
Result: 81%
